Reference source: paper PMC7616174

- Tgt: hM1 mAChR (Homo sapiens, UniProt P11229)
- Construct: expressed in transfected cells
- Sequence (P11229 1-460): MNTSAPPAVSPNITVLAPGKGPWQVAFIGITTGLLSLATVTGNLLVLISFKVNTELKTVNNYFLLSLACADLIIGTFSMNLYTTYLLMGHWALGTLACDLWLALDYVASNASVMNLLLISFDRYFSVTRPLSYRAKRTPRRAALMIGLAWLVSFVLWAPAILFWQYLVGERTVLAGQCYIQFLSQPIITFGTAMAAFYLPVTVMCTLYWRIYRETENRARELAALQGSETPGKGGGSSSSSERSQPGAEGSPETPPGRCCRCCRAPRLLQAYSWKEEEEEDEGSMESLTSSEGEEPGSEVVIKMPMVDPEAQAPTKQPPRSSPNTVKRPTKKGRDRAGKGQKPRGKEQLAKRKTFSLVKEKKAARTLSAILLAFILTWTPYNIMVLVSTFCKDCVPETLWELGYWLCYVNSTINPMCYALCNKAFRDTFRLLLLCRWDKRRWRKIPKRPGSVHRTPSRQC
- Experiment notes: IP1 accumulation assay (ACh concentration-response curves in absence or presence of modulator)
- Type: cell-based
- Test settings: 10 μM modulator; FlpIn CHO hM1 cells; mean ± SEM, 3 experiments
Quantity: ΔpEC50 [10 μM]: change in ACh pEC50 in presence of M1 PAM compared to control curve

CN(C)C(=O)Cn1ccc(-c2ccccc2OCc2ccc(-c3cnn(C)c3)cc2)cc1=O [Compound 13c]    1.33
Cn1cc(-c2ccc(COc3ccccc3-c3ccn(C4CCCCC4=O)c(=O)c3)cc2)cn1 (centres unmarked) [Compound 13d]    1.31
Cn1cc(-c2ccc(COc3ccccc3-c3cc(=O)n(C4CCCCC4O)cn3)cc2)cn1 (centres unmarked)    1.28

(1) Cn1cc(-c2ccc(COc3ccccc3-c3ccn(C4CCCCC4O)c(=O)c3)cc2)cn1 (centres unmarked)
(2) Cn1cc(-c2ccc(Cn3cccc(-c4ccn(C5CCCCC5O)c(=O)c4)c3=O)cc2)cn1 (centres unmarked)
(3) Cn1cc(-c2ccc(COc3cccc(O)c3-c3ccn(C4CCCCC4O)c(=O)c3)cc2)cn1 (centres unmarked)
Query string: Rank ascending by ΔpEC50 [10 μM]: change in ACh pEC50 in presence of M1 PAM compared to control curve. Answer by listing the labels in the order asked for.
Result string: 3, 2, 1

====

- Tgt: hM1 mAChR (Homo sapiens, UniProt P11229)
- Construct: expressed in transfected cells
- Sequence (P11229 1-460): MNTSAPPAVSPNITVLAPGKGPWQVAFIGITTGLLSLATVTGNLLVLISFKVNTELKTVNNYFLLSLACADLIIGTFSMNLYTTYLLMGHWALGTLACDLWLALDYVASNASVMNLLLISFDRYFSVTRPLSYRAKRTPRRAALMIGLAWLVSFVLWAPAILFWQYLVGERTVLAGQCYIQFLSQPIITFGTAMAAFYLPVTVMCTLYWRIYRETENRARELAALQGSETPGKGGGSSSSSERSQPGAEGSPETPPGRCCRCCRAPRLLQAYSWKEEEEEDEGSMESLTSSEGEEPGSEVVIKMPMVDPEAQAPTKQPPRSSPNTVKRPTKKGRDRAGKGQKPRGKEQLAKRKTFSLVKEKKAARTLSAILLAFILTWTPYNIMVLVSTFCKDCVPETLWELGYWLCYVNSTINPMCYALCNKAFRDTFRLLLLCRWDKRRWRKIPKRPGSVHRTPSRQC
- Experiment notes: IP1 accumulation assay (ACh concentration-response curves in absence or presence of modulator)
- Format: cell-based
- Test settings: 10 μM modulator; FlpIn CHO hM1 cells; mean ± SEM, 3 experiments; read-out: Δbaseline [10 μM]: change in basal response in presence of M1 PAM compared to control curve
Quantity: activation at 10 µM (%)

In the examples that follow, each entry is paired with its recorded activation at 10 µM.
COC1CCCCC1n1ccc(-c2ccccc2OCc2ccc(-c3cnn(C)c3)cc2)cc1=O (stereo not shown)    22.1
Cn1cc(-c2ccc(COc3ncccc3-c3cc(=O)n(C4CCCCC4O)cn3)cc2)cn1 (stereo not shown) [Compound 26a]    100

(a) COC1CCCCC1n1cnc(-c2ccccc2OCc2ccc(-c3cnn(C)c3)cc2)cc1=O (stereo not shown) [Compound 28a]
(b) Cc1ccc(OCc2ccc(-c3cnn(C)c3)cc2)c(-c2ccn(C3CCCCC3O)c(=O)c2)c1 (stereo not shown)
Query string: Between the entries labelled a and b , which has a larger activation at 10 µM value on record? Your answer should be the label attached to the chosen record.
Result string: a
(a: 72.9%, b: 4.4%)
